Observation Type: Kd (µM)
Write it as a number; the unit µM goes unstated.

Give Kd (AI-BP (Mus musculus)) of the following compound: Nc1ncnc2c1ncn2[C@@H]1O[C@H](COP(=O)(O)OP(=O)(O)OC[C@H]2OC(O)[C@H](O)[C@@H]2O)[C@@H](O)[C@H]1O (stereo partly shown) 451

###

# Assay Target: Tm0922 (Thermotoga maritima, UniProt Q9X024)
# Sequence (Q9X024 1-490): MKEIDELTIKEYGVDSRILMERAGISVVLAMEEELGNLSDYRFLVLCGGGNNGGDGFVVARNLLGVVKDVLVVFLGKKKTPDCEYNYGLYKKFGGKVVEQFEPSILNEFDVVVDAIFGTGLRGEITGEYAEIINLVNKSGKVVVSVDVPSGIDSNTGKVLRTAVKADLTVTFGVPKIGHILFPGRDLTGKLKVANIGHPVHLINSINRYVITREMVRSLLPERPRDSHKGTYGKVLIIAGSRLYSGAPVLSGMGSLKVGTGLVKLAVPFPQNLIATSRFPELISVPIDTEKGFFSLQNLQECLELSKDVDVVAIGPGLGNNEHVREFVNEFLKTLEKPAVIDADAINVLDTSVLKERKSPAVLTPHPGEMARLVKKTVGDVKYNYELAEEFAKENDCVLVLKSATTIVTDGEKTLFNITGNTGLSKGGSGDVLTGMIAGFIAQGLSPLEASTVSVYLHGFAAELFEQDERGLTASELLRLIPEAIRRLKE
# Assay Details: isothermal titration calorimetry
# Type: binding
# Settings: 100 mM HEPES pH 7.5, 100 mM NaCl, 25°C (55°C also tested); likely YjeF_N site
Observation Type: pKd
Scale note: pKd = -log10(concentration in M).

Entry Nc1ncnc2c1ncn2[C@@H]1O[C@H](COP(=O)(O)OP(=O)(O)OC[C@H]2OC(O)[C@H](O)[C@@H]2O)[C@@H](O)[C@H]1O (stereo partly shown) has what pKd? 5.29

###

# Assay Target: Tm0922 (Thermotoga maritima, UniProt Q9X024)
# Sequence (Q9X024 1-490): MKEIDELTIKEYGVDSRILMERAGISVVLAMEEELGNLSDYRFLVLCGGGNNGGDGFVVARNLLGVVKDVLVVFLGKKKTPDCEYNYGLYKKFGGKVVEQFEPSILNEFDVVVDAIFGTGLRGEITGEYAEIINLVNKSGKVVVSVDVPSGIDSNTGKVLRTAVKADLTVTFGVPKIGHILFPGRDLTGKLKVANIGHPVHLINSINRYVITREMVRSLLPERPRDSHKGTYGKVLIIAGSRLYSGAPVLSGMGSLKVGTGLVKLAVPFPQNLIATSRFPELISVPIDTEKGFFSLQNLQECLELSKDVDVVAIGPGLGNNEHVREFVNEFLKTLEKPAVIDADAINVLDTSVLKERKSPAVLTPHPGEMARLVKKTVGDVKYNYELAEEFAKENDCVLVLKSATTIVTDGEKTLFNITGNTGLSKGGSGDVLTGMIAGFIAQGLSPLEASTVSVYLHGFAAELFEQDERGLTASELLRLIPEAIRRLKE
# Assay Details: isothermal titration calorimetry
# Format: binding
Observation Type: pKd
Scale note: pKd = -log10(concentration in M).

Entry NC(=O)c1ccc[n+]([C@@H]2O[C@H](COP(=O)(O)OP(=O)(O)OC[C@H]3O[C@@H](n4cnc5c(N)ncnc54)[C@H](OP(=O)(O)O)[C@@H]3O)[C@@H](O)[C@H]2O)c1 has what pKd? 5.22

Entry NC(=O)C1=CN([C@@H]2O[C@H](COP(=O)(O)OP(=O)(O)OC[C@H]3O[C@@H](n4cnc5c(N)ncnc54)[C@H](OP(=O)(O)O)[C@@H]3O)[C@@H](O)[C@H]2O)C=CC1 has what pKd? 5.28

Entry Nc1ncnc2c1ncn2[C@@H]1O[C@H](COP(=O)(O)OP(=O)(O)OC[C@H]2O[C@@H]([n+]3cccc(C(=O)O)c3)[C@H](O)[C@@H]2O)[C@@H](O)[C@H]1OP(=O)(O)O has what pKd? 3.98

###

# Assay Target: UniProt P94368
# Sequence (P94368 1-276): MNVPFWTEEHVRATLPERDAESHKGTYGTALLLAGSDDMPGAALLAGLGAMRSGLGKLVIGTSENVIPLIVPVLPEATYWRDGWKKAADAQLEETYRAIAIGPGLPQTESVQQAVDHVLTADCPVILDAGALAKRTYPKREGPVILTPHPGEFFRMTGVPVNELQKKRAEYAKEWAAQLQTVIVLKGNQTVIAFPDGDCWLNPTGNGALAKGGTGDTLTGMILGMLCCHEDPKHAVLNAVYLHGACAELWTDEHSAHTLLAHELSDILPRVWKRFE
What Kd was measured for each of the following?
Write it as a number; the unit µM goes unstated.

Give Kd (UniProt P94368) of the following compound: NC(=O)C1=CN([C@@H]2O[C@H](COP(=O)(O)OP(=O)(O)OC[C@H]3O[C@@H](n4cnc5c(N)ncnc54)[C@H](O)[C@@H]3O)[C@@H](O)[C@H]2O)C=CC1 [NADH] 9.6

Give Kd (UniProt P94368) of the following compound: Nc1ncnc2c1ncn2[C@@H]1O[C@H](COP(=O)(O)OP(=O)(O)OP(=O)(O)O)[C@@H](O)[C@H]1O [ATP] 595

Data provenance is paper PMC3472112.
